- tgt: THR alpha-LBD (Homo sapiens, UniProt P10827)
- Construct: except that THR alpha-LBD of a final concentration 0.25 nM was used; purchased Invitrogen PV4687
- Sequence (P10827 163-410 isoform P10827-2 limits assumed, other chains not shown): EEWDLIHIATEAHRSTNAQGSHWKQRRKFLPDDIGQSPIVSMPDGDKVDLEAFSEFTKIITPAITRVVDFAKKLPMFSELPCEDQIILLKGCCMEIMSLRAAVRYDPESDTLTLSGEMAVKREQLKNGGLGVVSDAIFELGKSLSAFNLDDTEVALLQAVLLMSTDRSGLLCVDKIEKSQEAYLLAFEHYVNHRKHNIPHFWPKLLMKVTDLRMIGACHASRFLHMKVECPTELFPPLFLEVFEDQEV
- test-details: THR-α Coactivator Peptide Recruitment Assay (LanthaScreen TR-FRET)
- Format: biochemical
- assay-context: TR-FRET coactivator recruitment, THR alpha-LBD 0.25 nM; read-out: THRα EC50
Measured EC50, listed per entry.

O=c1[nH]c(=O)n(-c2cc(Cl)c(Oc3ccc(O)c(S(=O)(=O)N4CCC(F)(F)CC4)c3)c(Cl)c2)nc1C(F)(F)F	2 to 200 nM
CN1CC(NS(=O)(=O)c2cc(Oc3c(Cl)cc(-n4nc(C(F)F)c(=O)[nH]c4=O)cc3Cl)ncc2O)C1	> 1000 nM
CO[C@H]1C[C@@H](NS(=O)(=O)c2cc(Oc3c(Cl)cc(-n4nc(C(F)F)c(=O)[nH]c4=O)cc3Cl)ncc2O)C1	200 to 1000 nM

Inquiry: Given the entry O=c1[nH]c(=O)n(-c2cc(Cl)c(Oc3cc(S(=O)(=O)NC4COC4)c(O)cn3)c(Cl)c2)nc1C(F)F , report its measured EC50.
Reply text: 2 to 200 nM

Inquiry: Consider the molecule shown here: O=c1[nH]c(=O)n(-c2cc(Cl)c(Oc3ccc(O)c(S(=O)(=O)N[C@H]4CC[C@@H](O)C4)c3)c(Cl)c2)nc1C(F)F What is its recorded EC50?
Reply text: 2 to 200 nM

Inquiry: So what does the record say about EC50 for CN1CCN(S(=O)(=O)c2cc(Oc3c(Cl)cc(-n4nc(C(F)F)c(=O)[nH]c4=O)cc3Cl)ccc2O)CC1=O ?
Reply text: 2 to 200 nM

Inquiry: Name the reported EC50 value associated with the molecule CO[C@H]1C[C@@H](NS(=O)(=O)c2cc(Oc3c(Cl)cc(-n4nc(C(F)F)c(=O)[nH]c4=O)cc3Cl)ccc2O)C1
Reply text: 2 to 200 nM

Inquiry: Consider the molecule shown here: CS(=O)(=O)N[C@H]1CCN(S(=O)(=O)c2cc(Oc3c(Cl)cc(-n4nc(C(F)F)c(=O)[nH]c4=O)cc3Cl)ccc2O)C1 What is its recorded EC50?
Reply text: 2 to 200 nM

Inquiry: Suppose we examine the molecule CC(C)NS(=O)(=O)c1cc(Oc2c(Cl)cc(-n3nc(C(F)F)c(=O)[nH]c3=O)cc2Cl)ncc1O ; what EC50 value has been reported?
Reply text: 2 to 200 nM

Inquiry: If you can, please state the reported EC50 value of CNS(=O)(=O)c1cc(Oc2c(Cl)cc(-n3nc(C(F)F)c(=O)[nH]c3=O)cc2Cl)ncc1OC .
Reply text: 200 to 1000 nM

Inquiry: Which EC50 value is on record for O=c1[nH]c(=O)n(-c2cc(Cl)c(Oc3ccc(O)c(S(=O)(=O)NC4CCC4)c3)c(Cl)c2)nc1C(F)F ?
Reply text: < 2 nM

Inquiry: Requested read-out: EC50. Entry: O=c1[nH]c(=O)n(-c2cc(Cl)c(Oc3cc(S(=O)(=O)NC4CCOCC4)c(O)cn3)c(Cl)c2)nc1C(F)F
Reply text: 2 to 200 nM

Inquiry: Reported EC50, molecule O=c1[nH]c(=O)n(-c2cc(Cl)c(Oc3cc(S(=O)(=O)N[C@H]4C[C@H](O)C4)c(O)cn3)c(Cl)c2)nc1C(F)F : ____
Reply text: 2 to 200 nM

###

- tgt: THR alpha-LBD (Homo sapiens)
- Construct: except that THR alpha-LBD of a final concentration 0.25 nM was used; purchased Invitrogen PV4687
- test-details: THR-α Coactivator Peptide Recruitment Assay (LanthaScreen TR-FRET)
- Format: biochemical
- assay-context: TR-FRET coactivator recruitment, THR alpha-LBD 0.25 nM
value-type: THRα Emax

Study these solved cases before continuing.
O=c1[nH]c(=O)n(-c2cc(Cl)c(Oc3ccc(O)c(S(=O)(=O)N4CCC4)c3)c(Cl)c2)nc1C(F)F [Compound 28]	A (85~110)
CCNS(=O)(=O)c1cc(Oc2c(Cl)cc(-n3nc(C(F)F)c(=O)[nH]c3=O)cc2Cl)ncc1O [Compound 112]	A (85~110)
O=C(NC1CCC1)c1cc(Oc2c(Cl)cc(-n3nc(C(F)(F)F)c(=O)[nH]c3=O)cc2Cl)ccc1O [Compound 5]	B (40~85)
C[C@]1(NS(=O)(=O)c2cc(Oc3c(Cl)cc(-n4nc(C(F)F)c(=O)[nH]c4=O)cc3Cl)ncc2O)C[C@H](O)C1 [Compound 168]	A (85~110)
O=C(NCC(F)F)C1(NS(=O)(=O)c2cc(Oc3c(Cl)cc(-n4nc(C(F)F)c(=O)[nH]c4=O)cc3Cl)ccc2O)CC1 [Compound 87]	B (40~85)
O=c1[nH]c(=O)n(-c2cc(Cl)c(Oc3cc(S(=O)(=O)NC4CC(F)(F)C4)c(O)cn3)c(Cl)c2)nc1C(F)F [Compound 105]	A (85~110)

Inquiry: Recall the recorded THRα Emax for O=C(NC1CCC1)C1(NS(=O)(=O)c2cc(Oc3c(Cl)cc(-n4nc(C(F)F)c(=O)[nH]c4=O)cc3Cl)ncc2O)CC1 [Compound 115] with THR alpha-LBD (Homo sapiens) and state it.
Reply text: B (40~85)

###

- tgt: THR beta-LBD (Homo sapiens, UniProt P10828)
- Construct: THR beta-LBD (the final concentration is 0.5 nM) was added to the 384-well assay plate; purchased Invitrogen PV4686
- Sequence (P10828 217-461 limits assumed): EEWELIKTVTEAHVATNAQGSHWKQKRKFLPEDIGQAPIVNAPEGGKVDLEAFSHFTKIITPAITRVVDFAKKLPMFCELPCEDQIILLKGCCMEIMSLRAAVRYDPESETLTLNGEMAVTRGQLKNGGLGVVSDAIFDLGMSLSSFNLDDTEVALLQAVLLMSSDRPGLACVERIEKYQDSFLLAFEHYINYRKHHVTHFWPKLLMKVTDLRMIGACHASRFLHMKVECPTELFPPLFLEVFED
- test-details: THR-β Coactivator Peptide Recruitment Assay (LanthaScreen TR-FRET)
- Format: biochemical
- assay-context: TR-FRET coactivator recruitment, THR beta-LBD 0.5 nM
value-type: THRβ Emax

Example cases with answers are listed next.
C[C@@H](CO)NS(=O)(=O)c1cc(Oc2c(Cl)cc(-n3nc(C(F)F)c(=O)[nH]c3=O)cc2Cl)ccc1O	B (75~90)
CC(C)(C)NC(=O)c1cc(Oc2c(Cl)cc(-n3nc(C(F)(F)F)c(=O)[nH]c3=O)cc2Cl)ccc1O	A (90~110)
N#C[C@H]1C[C@@H](NS(=O)(=O)c2cc(Oc3c(Cl)cc(-n4nc(C(F)F)c(=O)[nH]c4=O)cc3Cl)ncc2O)C1	B (75~90)
N#CC12CC(NS(=O)(=O)c3cc(Oc4c(Cl)cc(-n5nc(C(F)F)c(=O)[nH]c5=O)cc4Cl)ccc3O)(C1)C2	B (75~90)

# input for lookup
Inquiry: Form field: reported THRβ Emax of O=C(N1CCCC1)C1(NS(=O)(=O)c2cc(Oc3c(Cl)cc(-n4nc(C(F)F)c(=O)[nH]c4=O)cc3Cl)ccc2O)CC1
Reply text: A (90~110)

###

Documented ED50 across a set of molecules
- System: DIO1 mRNA in liver
- test-details: Pharmacodynamics in PTU induced hypothyroidism SD rat model: liver DIO1 mRNA
- Type: in vivo
- assay-context: Rattus norvegicus, po; PTU induced hypothyroidism SD rats, single dose by gavage, mRNA at 24h; read-out: Liver DIO1 absolute ED50
Report the figure in mg/kg without appending any unit label.

As a guide, the following entries are already answered.
O=c1[nH]c(=O)n(-c2cc(Cl)c(Oc3ccc(O)c(S(=O)(=O)N[C@H]4C[C@H](O)C4)c3)c(Cl)c2)nc1C(F)F [Compound 23]	5.4
CNS(=O)(=O)c1cc(Oc2c(Cl)cc(-n3nc(C(F)F)c(=O)[nH]c3=O)cc2Cl)ncc1O [Compound 72]	16.8
O=c1[nH]c(=O)n(-c2cc(Cl)c(Oc3ccc(O)c(S(=O)(=O)N[C@H]4C[C@@H](O)C4)c3)c(Cl)c2)nc1C(F)F [Compound 42]	4.6
CC(C)c1cc(Oc2c(Cl)cc(-n3nc(C#N)c(=O)[nH]c3=O)cc2Cl)n[nH]c1=O [MGL3196, MGL-3196, reference compound]	20.5

Moving on to the next molecule.
Inquiry: # value lookup — system DIO1 mRNA in liver, readout ED50, item O=c1[nH]c(=O)n(-c2cc(Cl)c(Oc3cc(S(=O)(=O)N[C@H]4C[C@H](O)C4)c(O)cn3)c(Cl)c2)nc1C(F)F [Compound 126]
Reply text: 21

###

- tgt: THR alpha-LBD (Homo sapiens, UniProt P10827)
- Construct: except that THR alpha-LBD of a final concentration 0.25 nM was used; purchased Invitrogen PV4687
- test-details: THR-α Coactivator Peptide Recruitment Assay (LanthaScreen TR-FRET)
- Assay type: biochemical
- assay-context: TR-FRET coactivator recruitment, THR alpha-LBD 0.25 nM; read-out: THRα EC50
value-type: EC50

O=c1[nH]c(=O)n(-c2cc(Cl)c(Oc3cc(S(=O)(=O)N4CC[C@@H](O)C4)c(O)cn3)c(Cl)c2)nc1C(F)F [Compound 141]	2 to 200 nM
O=c1[nH]c(=O)n(-c2cc(Cl)c(Oc3ccc(O)c(S(=O)(=O)N[C@H]4C[C@H](C(=O)NC5CC5)C4)c3)c(Cl)c2)nc1C(F)F [Compound 18]	200 to 1000 nM

// switching to the query molecule
Inquiry: Tell me reported EC50 for O=C(NC1CC1)C1(NS(=O)(=O)c2cc(Oc3c(Cl)cc(-n4nc(C(F)(F)F)c(=O)[nH]c4=O)cc3Cl)ccc2O)CC1 [Compound 93] , tested with THR alpha-LBD (Homo sapiens, UniProt P10827).
Reply text: > 1000 nM

Source: patent US12291518B2
